# system_under_test: M4 muscarinic receptor (Homo sapiens, UniProt P08173)
# Construct: expressed in transfected cells; host or cells: CHO (M4-CHO)
# Sequence (P08173 whole entry): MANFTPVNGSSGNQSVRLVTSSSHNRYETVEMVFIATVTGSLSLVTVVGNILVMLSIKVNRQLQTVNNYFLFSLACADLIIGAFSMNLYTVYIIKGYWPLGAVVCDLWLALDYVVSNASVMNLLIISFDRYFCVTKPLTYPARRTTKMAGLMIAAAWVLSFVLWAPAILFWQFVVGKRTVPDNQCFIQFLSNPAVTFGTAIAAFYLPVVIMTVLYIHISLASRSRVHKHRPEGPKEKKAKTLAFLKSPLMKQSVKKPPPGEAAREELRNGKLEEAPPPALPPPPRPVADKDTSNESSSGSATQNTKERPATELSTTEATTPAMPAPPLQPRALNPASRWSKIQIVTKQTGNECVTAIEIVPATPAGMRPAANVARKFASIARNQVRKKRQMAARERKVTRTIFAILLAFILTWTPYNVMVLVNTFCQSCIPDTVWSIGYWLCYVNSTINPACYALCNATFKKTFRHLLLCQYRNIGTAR
# method_summary: Functional mobilization of intracellular calcium (FLIPR) in M4-CHO cells
# Assay type: cell-based
# run_parameters: Table 4; 100% efficacy is the maximum response obtained with the Carbachol control
measured_quantity: Emax

In [3]: df
Out[3]:
                                   compound  measured_quantity  test_value
0  CN(C)C(=O)N1CC2(CCN(C[C@@H]3CCN(C(=O)OCC4CC4)C3)CC2)c2cc(F)ccc21 [compound 584]               Emax  25 to 100%
1  CN(C)C(=O)NC1CCC2(CCN(CCC3CC4CCC3C4)CC2)c2ccccc21 (stereo not shown) [compound 1010]               Emax       < 25%
2  CCCC#CCOC(=O)N1CC[C@H](CN2CCC3(CC2)CN(C(=O)N(C)C)c2ccc(F)cc23)C1 [compound 981]               Emax  25 to 100%
3  COC(=O)N1C2CCC1CC(N1CCC3(CC1)CN(C(C)=O)c1ccccc13)C2 (stereo not shown) [compound 679]               Emax  25 to 100%

Origin of the recorded values: patent US7786141B2
